These entries and their values trace back to patent US20180289692A1.

Tested on: human PBMCs
run_description: Cytokine production by human PBMCs treated with ODNs, MagPix Multi-Plex
Assay type: cell-based
condition_set: low-dose ODN 0.1 μM, human PBMC, 24 hrs
Oligonucleotides are written 5' to 3', each unit as a sugar letter and its base; * is a phosphorothioate linkage, no mark a phosphodiester; rarer units and linkages stand in square brackets, end groups in braces. Plain capitals give the bases only. d = 2'-deoxy (DNA); m = 2'-O-methyl
property_name: IL-1β (pg/mL)

ODN150C: 5′-G*G*A*ACAGTTAGTCCATa*G*G*C-3′, PO except * = PS; control lacking CG-dinucleotide sequences (DNA GGAACAGTTAGTCCATGGC; listed as DNA, chemistry not fully specified) = 0.2
ODN7040C: 5′-CTGCCAAGTTCACCTGCA*C*C*-3′, PO; * = 2′OMe; control lacking CG-dinucleotide sequences (DNA dCdTdGdCdCdAdAdGdTdTdCdAdCdCdTdGdCmAmCmC) = 0.6
ODN150: 5′-G*G*A*ACAGTTCGTCCAT*G*G*C-3′, PO except * = PS; antisense to p65 of NF-kB mRNA; tested clinically for ulcerative colitis (DNA dG*dG*dA*dAdCdAdGdTdTdCdGdTdCdCdAdT*dG*dG*dC) = 0.2
ODN301C: 5′-GTAGCCCCATCACCCAGCAGC-3′, fully PS, GC-containing (DNA dG*dT*dA*dG*dC*dC*dC*dC*dA*dT*dC*dA*dC*dC*dC*dA*dG*dC*dA*dG*dC) = 0.1
ODN302: 5′-GTCGCTCTTCTCCTCCGCCAG-3′, fully PS; scrambled (non-SMAD7 AON) control sequence with two CG sequences (DNA dG*dT*dC*dG*dC*dT*dC*dT*dT*dC*dT*dC*dC*dT*dC*dC*dG*dC*dC*dA*dG) = 0.2
